src = patent US20250134869A1

I'd be grateful if you could share measured IC50 for these entries.
target.entity: JAK3 enzyme (Homo sapiens (Human))
protocol.notes: JAK Caliper Enzyme Assay at 4 μM or 1 mM ATP
Type: biochemical
experimental.parameters: read-out: JAK3 (1 mM ATP) IC50; 1 mM ATP
One number for each entry, in nM.

Some solved entries appear below for comparison.
| compound | measurement |
| --- | --- |
| C=CC(=O)N1CCC(Nc2cnc3[nH]cc(C(=O)NC4CCCC4)c3n2)CC1 [Example 283] | 7.6 |
| C=CC(=O)N1C[C@H](Nc2ncnc3[nH]ccc23)C[C@H](N(C)C)C1 [Example 57] | 361 |

// below: IC50 requested for another compound
Name the reported IC50 value associated with the compound C=CC(=O)N[C@H]1C[C@@H](Nc2cnc3[nH]cc(C(=O)NC(C)C)c3n2)C1 [Example 184]
210

====

target.entity: JAK3 enzyme (Homo sapiens (Human), UniProt P52333)
Sequence (P52333 whole entry, species assumed): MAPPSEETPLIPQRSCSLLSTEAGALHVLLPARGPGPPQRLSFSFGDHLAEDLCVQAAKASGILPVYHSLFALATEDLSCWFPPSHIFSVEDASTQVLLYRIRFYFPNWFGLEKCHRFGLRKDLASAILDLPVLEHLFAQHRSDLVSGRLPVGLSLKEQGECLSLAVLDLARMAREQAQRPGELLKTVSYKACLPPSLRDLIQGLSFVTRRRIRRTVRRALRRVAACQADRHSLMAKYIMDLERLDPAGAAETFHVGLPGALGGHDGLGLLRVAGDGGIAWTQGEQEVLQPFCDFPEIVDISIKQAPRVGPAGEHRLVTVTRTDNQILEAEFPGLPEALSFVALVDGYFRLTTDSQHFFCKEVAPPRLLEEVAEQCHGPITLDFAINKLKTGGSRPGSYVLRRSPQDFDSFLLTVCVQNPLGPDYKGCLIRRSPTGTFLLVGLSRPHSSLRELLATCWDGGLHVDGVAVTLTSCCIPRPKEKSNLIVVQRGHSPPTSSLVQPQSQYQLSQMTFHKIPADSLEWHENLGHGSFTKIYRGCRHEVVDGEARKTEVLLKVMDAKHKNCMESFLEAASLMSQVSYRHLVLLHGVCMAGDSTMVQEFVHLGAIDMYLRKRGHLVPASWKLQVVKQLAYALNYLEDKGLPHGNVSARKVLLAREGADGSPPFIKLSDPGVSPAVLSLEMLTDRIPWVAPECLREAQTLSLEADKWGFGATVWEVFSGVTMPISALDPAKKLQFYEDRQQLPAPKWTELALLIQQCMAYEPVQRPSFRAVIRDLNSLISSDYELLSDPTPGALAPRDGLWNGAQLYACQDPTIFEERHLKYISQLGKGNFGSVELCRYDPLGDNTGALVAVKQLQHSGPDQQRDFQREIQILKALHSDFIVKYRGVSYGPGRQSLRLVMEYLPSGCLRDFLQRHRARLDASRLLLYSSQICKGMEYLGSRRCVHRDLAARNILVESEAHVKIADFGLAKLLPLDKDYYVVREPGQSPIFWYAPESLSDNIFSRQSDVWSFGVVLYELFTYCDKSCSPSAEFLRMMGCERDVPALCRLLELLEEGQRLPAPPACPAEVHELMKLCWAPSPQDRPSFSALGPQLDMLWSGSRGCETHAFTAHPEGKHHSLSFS
protocol.notes: JAK Caliper Enzyme Assay at 4 μM or 1 mM ATP
Format: biochemical
experimental.parameters: read-out: JAK3 (4 μM ATP) IC50; 4 μM ATP
property.label: IC50 (nM)
Answers are plain numbers, in nM.

Below, 6 molecules whose answers are already recorded.
| molecule | IC50 / nM |
| --- | --- |
| C/C=C/C(=O)N1CCC[C@@H](Nc2ncnc3[nH]cc(Cc4ccc(O)cc4)c23)C1 | 110 |
| C=CC(=O)N1CCC[C@@H](Nc2ncnc3[nH]cc(CCC#N)c23)C1 | 9 |
| C=CC(=O)N1CCN(c2cnc3[nH]cc(C(=O)NC(C)C)c3n2)C[C@@H]1CC | 0.7 |
| C=CC(=O)N1CCC(Nc2cnc3[nH]cc(C(=O)NCC(C)CC(F)(F)F)c3n2)CC1 (centres unmarked) | 0.2 |
| C=CC(=O)N1CCC(Nc2cnc3[nH]cc(C(=O)N[C@@H](C(C)C)[C@H](O)C(F)(F)F)c3n2)CC1 | 0.5 |
| O=C(/C=C/c1c[nH]cn1)N1CCC[C@@H](Nc2ncnc3[nH]ccc23)C1 | 1160 |

Value sought for every listed molecule: IC50.
1. C=CC(=O)N1CC[C@@H]2CN(c3cnc4[nH]cc(C(=O)NC(C)C)c4n3)C[C@@H]21
2. C=CC(=O)N1C[C@H](OC)C[C@@H](N(C)c2ncnc3[nH]ccc23)C1

1. 3.3
2. 387

====

target.entity: JAK3 enzyme (Homo sapiens (Human))
protocol.notes: JAK Caliper Enzyme Assay at 4 μM or 1 mM ATP
Type: biochemical
experimental.parameters: read-out: JAK3 (4 μM ATP) IC50; 4 μM ATP
Consider the following molecules; for each one, report its log10 of IC50.
// stored as log10 of IC50 expressed in nM

Recorded log10 of IC50, per entry:
| molecule | property.label | measurement |
| --- | --- | --- |
| C=CC(=O)N1CCC(Nc2cnc3[nH]cc(C(=O)N[C@@H](C)CCC)c3n2)CC1 | log10 of IC50 | -0.52 |
| C=CC(=O)N1CCC(Nc2cnc3[nH]cc(C(=O)NCCCC#N)c3n2)CC1 | log10 of IC50 | -1.00 |
| C=C(C)C(=O)N1CCC[C@@H](Nc2ncnc3[nH]cc(CCOC)c23)C1 | log10 of IC50 | 3.16 |

For every item below, please supply its log10 of IC50.
1. C=CC(=O)N1CCC(Nc2cnc3[nH]cc(C(=O)NCC4(O)CCC4)c3n2)CC1
2. C=C(C)C(=O)N1CCC[C@@H](Nc2ncnc3[nH]cc(Cc4ccc(O)cc4)c23)C1
3. C=CC(=O)N1CCC(Nc2cnc3[nH]cc(C(=O)NCC4(O)CCCC(F)(F)C4)c3n2)CC1 (centres unmarked)
4. C=CC(=O)N1CCC(Nc2cnc3[nH]ccc3n2)CC1
5. C=CC(=O)N1C[C@H](Nc2ccnc3[nH]cc(C#N)c23)CC[C@@H]1C
6. C=CC(=O)N1CC2(C1)CN(c1cnc3[nH]ccc3n1)C2

1: -0.22; 2: 1.92; 3: -0.22; 4: 0.86; 5: -0.30; 6: 3.21

For each entry beneath this line, provide reported log10 of IC50.
1. C=CC(=O)c1c[nH]c2ncnc(N[C@H]3CN(C(=O)C=C)CC[C@H]3F)c12
2. C/C=C/C(=O)N1CCC[C@@H](Nc2ncnc3[nH]ccc23)C1 [Example 95]
3. C=CC(=O)N1CC[C@@H](Nc2cnc3[nH]cc(C(=O)NC(C)C)c3n2)[C@H](F)C1
4. C=CC(=O)N1CC[C@@H](Nc2cnc3[nH]cc(C(=O)NC(C)C)c3n2)[C@H](O)C1

2.84
3.39
-0.70
-0.52

For each of the items listed, what is its log10 of IC50?
1. C=CC(=O)N1CCC(Nc2cnc3[nH]cc(C(=O)NC4CCC4)c3n2)CC1
2. C=CC(=O)NC[C@@]12C[C@@H]1CN(c1cnc3[nH]ccc3n1)C2
3. C=CC(=O)N1C[C@H](Nc2ncnc3[nH]ccc23)C[C@H](N(C)C)C1
4. C=CC(=O)N1CCN(c2cnc3[nH]cc(C(=O)NC(C)C)c3n2)C2(CC2)C1

1. -0.70
2. 3.54
3. 0.15
4. 0.15

====

Exercise: for every item that follows, state its recorded IC50.
target.entity: JAK3 enzyme (Homo sapiens (Human), UniProt P52333)
protocol.notes: JAK Caliper Enzyme Assay at 4 μM or 1 mM ATP
Format: biochemical
experimental.parameters: read-out: JAK3 (1 mM ATP) IC50; 1 mM ATP
One number for each entry, in nM.

Some compounds with known IC50 results, for comparison:
| record.smiles | IC50 / nM |
| --- | --- |
| C=CC(=O)N1C[C@@H](O)C[C@@H](Nc2ncnc3[nH]ccc23)C1 | 92.2 |
| C=CC(=O)N1CC[C@@H](CNc2cnc3[nH]cc(C(=O)NC(C)C)c3n2)C1 | 138 |

# ---- query compound ----
Could you share which IC50 value was measured for C=CC(=O)N1CCC(Oc2cnc3[nH]cc(C(=O)NC(C)(C)C)c3n2)CC1 ?
115

====

Hi there, I'd appreciate the recorded IC50 for every entry that follows.
target.entity: UniProtKB P52333
protocol.notes: JAK Caliper Enzyme Assay at 4 μM or 1 mM ATP
Assay type: biochemical
experimental.parameters: read-out: JAK3 (1 mM ATP) IC50; 1 mM ATP
One number for each entry, in nM.

| molecule | IC50, nM |
| --- | --- |
| C=CC(=O)N1CCC(Nc2cnc3[nH]cc(C(=O)NCC4(O)CCCC(F)(F)C4)c3n2)CC1 (centres unmarked) [Example 249] | 47 |

Fill in IC50 for each of the 3 molecules listed.
1. C=CC(=O)N1CC[C@@H](Nc2cnc3[nH]cc(C(=O)NC(C)C)c3n2)[C@@H](OC)C1 [Example 302]
2. C=CC(=O)N1CC[C@H](Nc2cnc3[nH]ccc3n2)C1 [Example 336]
3. C=CC(=O)N1CCC(Nc2cnc3[nH]cc(C(=O)NC45CC(C4)C5)c3n2)CC1 [Example 281]

49.4
3400
5.2

Your task in this section: give IC50 for each listed record.
1. C=CC(=O)N1CCC(Nc2cnc3[nH]cc(C(=O)N[C@H](CC)CC#N)c3n2)CC1 [Example 263]
2. C=CC(=O)N1CCC(Nc2cnc3[nH]cc(C(=O)NCCC(F)(F)F)c3n2)CC1 [Example 246]

[8.7, 6.4]

====

target.entity: JAK3 enzyme (Homo sapiens (Human))
protocol.notes: JAK Caliper Enzyme Assay at 4 μM or 1 mM ATP
Assay type: biochemical
experimental.parameters: read-out: JAK3 (1 mM ATP) IC50; 1 mM ATP
Description: JAK Caliper Enzyme Assay at […] or 1 mM ATP Test article was solubilized in dimethyl sulfoxide (DMSO) to a stock concentration of 30 mM. An 11-point half log dilution series was created in DMSO with a top concentration of 600 μM. […] The compound plates were diluted 1 to 60 resulting in a top final assay compound concentration of 10 μM and a 2% DMSO concentration. Test article and assay controls were added to a 384-well plate. […]
property.label: IC50 (nM)
Numbers only, in nM.

Known results for molecules:
| molecule | measurement |
| --- | --- |
| C=CC(=O)N1CC[C@H]2CCN(c3ncnc4[nH]cc(C(C)=O)c34)[C@H]2C1 | 4740 |
| C=CC(=O)N1CCC[C@@H](Nc2ncnc3[nH]cc(CC)c23)C1 | 168 |
| C=CC(=O)N1CCN(c2cnc3[nH]cc(C(=O)NC(C)C)c3n2)[C@H](CC)C1 | 144 |
| C=CC(=O)N1C[C@H](Nc2ncnc3[nH]ccc23)C[C@H](OC)C1 | 67.6 |
| C=CC(=O)N1CC[C@@H](Nc2cnc3[nH]cc(C(=O)NC(C)C)c3n2)[C@H](F)C1 | 9.2 |
| C=CC(=O)N1CCC(Nc2cnc3[nH]cc(-c4ccccc4)c3n2)CC1 | 14.3 |
| C=CC(=O)N1CCC(Oc2cnc3[nH]cc(-c4cccnc4F)c3n2)CC1 | 42.4 |
| C=CC(=O)N1CC(O)C(Nc2cnc3[nH]cc(C(=O)NC(C)C)c3n2)C1 (stereo not shown) | 309 |

Please give IC50, item by item, for the list that follows.
1. C=CC(=O)N1C[C@@H]2C(Nc3cnc4[nH]cc(C(=O)NC(C)C)c4n3)[C@@H]2C1 (stereo partly shown)
2. C=CC(=O)N1C[C@H](Nc2ncnc3[nH]ccc23)C[C@@H](N(C)C)C1
3. C=CC(=O)N1CCC[C@@H](Nc2ncnc3[nH]cc(-c4cncc(OC)c4)c23)C1
4. C=CC(=O)N1CCN(c2cnc3[nH]cc(C(=O)NC(C)C)c3n2)C[C@H]1CC
5. C=CC(=O)N1CC[C@H](Nc2cnc3[nH]cc(C(=O)NC(C)C)c3n2)[C@H](OC)C1
6. C=CC(=O)N1CCC(Nc2cnc3[nH]cc(C(=O)NC4CCC4)c3n2)CC1
7. C=CC(=O)N1CCC[C@@H](Nc2ncnc3[nH]ccc23)C1
8. C=CC(=O)N1CCC(Nc2cnc3[nH]cc(C(=O)NC4CCCCC4(F)F)c3n2)CC1 (stereo not shown)

1. 198
2. 3390
3. 98.1
4. 200
5. 44.6
6. 4
7. 56.8
8. 7.9
